- target-system: P. mirabilis urease (Proteus mirabilis, UniProt P17086)
- Construct: it utilizes whole bacterial cells, rather than isolated enzyme preparations; endogenous in cells; host or cells: Proteus mirabilis HI4320, live whole cells
- Sequence (P17086 whole entry): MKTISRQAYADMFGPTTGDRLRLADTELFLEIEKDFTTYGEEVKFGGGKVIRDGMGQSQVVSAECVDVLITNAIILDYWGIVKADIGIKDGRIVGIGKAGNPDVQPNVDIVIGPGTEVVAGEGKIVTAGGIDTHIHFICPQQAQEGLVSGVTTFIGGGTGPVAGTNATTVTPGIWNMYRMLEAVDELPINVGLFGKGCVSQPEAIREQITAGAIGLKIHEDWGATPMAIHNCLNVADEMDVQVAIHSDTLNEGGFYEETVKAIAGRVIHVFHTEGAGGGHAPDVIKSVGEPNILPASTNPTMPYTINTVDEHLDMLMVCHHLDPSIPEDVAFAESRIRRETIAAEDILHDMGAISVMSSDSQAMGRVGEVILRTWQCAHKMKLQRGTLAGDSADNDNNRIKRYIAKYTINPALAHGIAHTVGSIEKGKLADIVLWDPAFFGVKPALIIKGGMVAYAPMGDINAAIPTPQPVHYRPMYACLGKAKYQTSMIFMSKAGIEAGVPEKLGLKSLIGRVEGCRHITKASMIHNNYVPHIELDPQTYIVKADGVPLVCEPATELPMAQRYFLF
- Sequence (P17088 whole entry, further chain): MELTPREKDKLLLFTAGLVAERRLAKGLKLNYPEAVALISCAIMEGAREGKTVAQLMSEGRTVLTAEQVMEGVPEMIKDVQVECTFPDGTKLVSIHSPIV
- Sequence (P17087 whole entry, further chain): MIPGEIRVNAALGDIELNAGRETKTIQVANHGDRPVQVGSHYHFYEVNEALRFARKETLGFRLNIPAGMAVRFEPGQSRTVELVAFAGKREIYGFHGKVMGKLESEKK
- Format: cell-based
Structures can show the parent of a compound that is named as a salt. Where a SMILES comes first, the peptide text is derived from it.
Here the recorded concentrations required to achieve a significant combination index is given for each entry.
observable: concentrations required to achieve a significant combination index

# compound, observed-measurement
records = [
    ("CC(C)C[C@H](N)C(=O)NCC(=O)O [leucylglycine, L-Leucylglycine hydrate] (H-Leu-Gly-OH)", "> 50 mM"),
    ("O=C(O)C(=O)Cc1ccccc1 [phenylpyruvate, Sodium phenylpyruvate monohydrate]", "> 50 mM"),
    ("NCCc1c[nH]cn1 [Histamine, histamine dihydrochloride]", "< 50 mM"),
    ("Cl.O=C(O)Cc1cnc[nH]1 [4-imidazole acetate]", "< 50 mM"),
]

---

- target-system: Jack Bean Urease (JBU) (Canavalia ensiformis)
- Construct: purchased Sigma-Aldrich
- Sequence (P07374 whole entry, looked up): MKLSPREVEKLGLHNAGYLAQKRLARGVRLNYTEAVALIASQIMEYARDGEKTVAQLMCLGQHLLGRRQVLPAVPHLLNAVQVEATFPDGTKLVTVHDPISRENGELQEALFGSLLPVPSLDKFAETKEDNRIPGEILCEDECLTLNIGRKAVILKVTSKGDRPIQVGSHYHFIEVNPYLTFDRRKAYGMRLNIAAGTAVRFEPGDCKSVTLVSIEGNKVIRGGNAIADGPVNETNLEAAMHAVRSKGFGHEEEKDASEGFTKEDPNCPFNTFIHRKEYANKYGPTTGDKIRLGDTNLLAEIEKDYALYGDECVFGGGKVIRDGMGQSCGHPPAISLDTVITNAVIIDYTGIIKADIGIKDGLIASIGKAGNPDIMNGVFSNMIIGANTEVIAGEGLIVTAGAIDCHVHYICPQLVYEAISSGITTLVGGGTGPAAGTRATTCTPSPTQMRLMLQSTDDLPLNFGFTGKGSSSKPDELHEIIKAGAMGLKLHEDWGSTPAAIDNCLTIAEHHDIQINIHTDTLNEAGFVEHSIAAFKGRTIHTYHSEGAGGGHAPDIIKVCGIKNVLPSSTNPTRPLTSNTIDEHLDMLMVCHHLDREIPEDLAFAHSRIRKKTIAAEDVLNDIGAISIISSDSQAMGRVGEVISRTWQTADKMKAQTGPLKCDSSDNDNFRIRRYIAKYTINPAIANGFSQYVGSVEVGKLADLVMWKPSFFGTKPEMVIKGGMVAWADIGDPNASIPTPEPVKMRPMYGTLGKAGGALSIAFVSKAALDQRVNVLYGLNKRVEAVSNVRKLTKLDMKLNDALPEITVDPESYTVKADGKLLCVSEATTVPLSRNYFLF
- Assay type: biochemical
- reported-conditions: 0.1 U JBU, 500 mM urea
Where a SMILES comes first, the peptide text is derived from it.

# molecule, target-system, JBU activity
records = [
    ("CC(C)C[C@H](N)C(=O)NCC(=O)O [leucylglycine, L-Leucylglycine hydrate] (H-Leu-Gly-OH)", "Jack Bean Urease (JBU) (Canavalia ensiformis)", "inhibited"),
    ("O=C(O)[C@@H](O)Cc1cnc[nH]1 [L-imidazole lactate, L-imidazolelactic acid]", "Jack Bean Urease (JBU) (Canavalia ensiformis)", "inhibited"),
    ("c1c[nH]cn1 [imidazole, Imidazole]", "Jack Bean Urease (JBU) (Canavalia ensiformis)", "inhibited"),
    ("O.O=C(O)[C@H](O)Cc1cnc[nH]1 [D-imidazole lactate, D-imidazolelactic acid hydrate]", "Jack Bean Urease (JBU) (Canavalia ensiformis)", "inhibited"),
    ("Cl.O=C(O)Cc1cnc[nH]1 [4-imidazole acetate]", "Jack Bean Urease (JBU) (Canavalia ensiformis)", "inhibited"),
]

---

- target-system: P. mirabilis urease (Proteus mirabilis, UniProt P17086)
- Construct: it utilizes whole bacterial cells, rather than isolated enzyme preparations; endogenous in cells; host or cells: Proteus mirabilis HI4320, live whole cells
- Format: cell-based
- reported-conditions: biosynthetic pathway/functional group screen; highest concentration tested 20mM

# molecule, Dampens urease activity
records = [
    ("C[C@H](O)C(=O)O [L-Lactic acid, L-(+)-Lactic acid]", "No"),
    ("Cl.O=C(O)Cc1cnc[nH]1 [4-imidazole acetate]", "Yes"),
    ("CC(=O)O", "No"),
    ("O=C(O)C(O)Cc1ccccc1 (racemic) [Phenyllactate, (+/-)-3-Phenyllactic acid]", "No"),
    ("c1c[nH]cn1", "Yes"),
    ("NCC(=O)O", "No"),
    ("N[C@@H](Cc1c[nH]cn1)C(=O)O", "No"),
]

---

- target-system: P. mirabilis urease (Proteus mirabilis, UniProt P17086)
- Construct: it utilizes whole bacterial cells, rather than isolated enzyme preparations; endogenous in cells; host or cells: Proteus mirabilis HI4320, live whole cells
- Assay type: cell-based
- reported-conditions: potassium phosphate buffer, dose response
Where a name gives a salt, the structure may show the parent alone. Where a SMILES comes first, the peptide text is derived from it.
observable: effect on P. mirabilis urease activity (whole cell)

# molecule, observed-measurement
rows = [
    ("c1c[nH]cn1 [imidazole, Imidazole]", "additional hits"),
    ("CC(C)C[C@H](N)C(=O)NCC(=O)O [leucylglycine, L-Leucylglycine hydrate] (H-Leu-Gly-OH)", "reproducibly decreased"),
    ("Cl.O=C(O)Cc1cnc[nH]1 [4-imidazole acetate]", "additional hits"),
    ("O=C(O)[C@@H](O)Cc1cnc[nH]1 [imidazole lactate]", "reproducibly decreased"),
    ("NCCc1c[nH]cn1 [Histamine, histamine dihydrochloride]", "reproducibly decreased"),
]

---

- target-system: P. mirabilis urease (Proteus mirabilis)
- Construct: it utilizes whole bacterial cells, rather than isolated enzyme preparations; endogenous in cells; host or cells: Proteus mirabilis HI4320, live whole cells
- Assay type: cell-based
- reported-conditions: screen of candidate metabolites; highest concentration tested 20mM; * Trending but not statistically significant
Where a SMILES comes first, the peptide text is derived from it.
observable: Urease dampening activity

# compound, observed-measurement
data = [
    ("CC[C@H](C)[C@H](NC(C)=O)C(=O)O [N-acetylisoleucine, N-acetyl-L-isoleucine]", "No"),
    ("CC(C)C[C@H](N)C(=O)NCC(=O)O [leucylglycine, L-Leucylglycine hydrate] (H-Leu-Gly-OH)", "Yes"),
    ("NC(COP(=O)(O)O)C(=O)O (racemic) [Ophospho-D,L-serine]", "No"),
    ("OC[C@H]1O[C@@](CO)(O[C@H]2O[C@H](CO)[C@@H](O)[C@H](O)[C@H]2O)[C@@H](O)[C@@H]1O [sucrose, Sucrose]", "No"),
]

---

- target-system: P. mirabilis urease (Proteus mirabilis, UniProt P17086)
- Construct: it utilizes whole bacterial cells, rather than isolated enzyme preparations; endogenous in cells; host or cells: Proteus mirabilis HI4320, live whole cells
- Format: cell-based
- reported-conditions: screen of candidate metabolites; highest concentration tested 20mM; * Trending but not statistically significant
Where a name gives a salt, the structure may show the parent alone.

# molecule, Urease dampening activity
measured = [
    ("NCCc1c[nH]cn1 [Histamine free base]", "Yes*"),
    ("NC(N)=NCCCC[C@H](N)C(=O)O [homoarginine, H-HoArg-OH]", "No"),
    ("O=C([O-])CCC(O)C(=O)[O-].[Na+].[Na+] (racemic) [2-hydroxyglutarate, DL-α-Hydroxyglutaric acid disodium salt]", "No"),
    ("NCCc1ccccc1 [phenethylamine, 2-Phenylethylamine]", "No"),
    ("NCCCCN [putrescine, Putrescine Dihydrochloride]", "No"),
    ("O=C1NC(Cc2ccccc2)C(=O)N2CCCC12 (stereo not drawn) [cyclo(phe-pro), Cyclo(Phe-Pro)]", "No"),
    ("NCCCCCN [cadaverine, Cadaverine]", "No"),
    ("CC(C)CC(=O)C(=O)O [4-methyl-2-oxopentanoate, 4-Methyl-2-oxovaleric acid]", "No"),
    ("O=C(O)[C@@H](O)Cc1cnc[nH]1 [L-imidazole lactate, L-imidazolelactic acid]", "Yes"),
    ("NC(N)=NCCC[C@@H](N)C(=O)O [D-Arginine]", "No"),
    ("N=C(N)NCCC[C@H](N)C(=O)O [L-Arginine]", "No"),
    ("O=C1N[C@@H](Cc2ccc(O)cc2)C(=O)N2CCC[C@@H]12 [cyclo(pro-tyr), Cyclo(-Pro-Tyr)]", "No"),
    ("N[C@@H](Cc1ccccc1)C(=O)O [phenylalanine, L-phenylalanine]", "No"),
    ("O=C([O-])[C@H](O)[C@@H](O)[C@H](O)[C@H](O)CO.[Na+] [gluconate, Gluconic acid Sodium Salt]", "No"),
    ("CC(=O)NCCCCN.Cl [N-acetylputrescine, N-Acetylputrescine Hydrochloride]", "No"),
    ("O=C(O)C(=O)Cc1ccccc1 [phenylpyruvate, Sodium phenylpyruvate monohydrate]", "Yes"),
    ("Nc1ncnc2c1ncn2[C@@H]1O[C@@H]2COP(=O)(O)O[C@H]2[C@H]1O", "No"),
    ("CC(=O)NCCCCCN [N-(5-Aminopentyl)acetamide]", "No"),
]

Reference source for all entries: paper PMC12583827
